test: Carotenoid content of Lycopene Suspension-supplemented diets after 7 months storage; format: physicochemical; conditions: Diet 4, 0.25 mM/kg diet, stored at −20 °C for 7 months
The entries below come with measured Carotenoid content of diet values attached.

As a guide, the following entries are already answered.
[
  {
    "compound": "CC1=C(/C=C/C(C)=C/C=C/C(C)=C/C=C/C=C(C)/C=C/C=C(C)/C=C/C2=C(C)CCCC2(C)C)C(C)(C)CCC1",
    "Carotenoid content of diet": "37 μg/gm (ppm)"
  },
  {
    "compound": "CC(C)=CCC/C(C)=C/CC/C(C)=C/C=C/C(C)=C/C=C/C=C(C)/C=C/C=C(\\C)CC/C=C(\\C)CCC=C(C)C",
    "Carotenoid content of diet": "2 μg/gm (ppm)"
  },
  {
    "compound": "CC(C)=CCC/C(C)=C/CC/C(C)=C/CC/C(C)=C/C=C/C=C(\\C)CC/C=C(\\C)CC/C=C(\\C)CCC=C(C)C",
    "Carotenoid content of diet": "5 μg/gm (ppm)"
  }
]

Look up Carotenoid content of diet of `CC(C)=CCC/C(C)=C/C=C/C(C)=C/C=C/C(C)=C/C=C/C=C(C)/C=C/C=C(C)/C=C/C=C(\C)CCC=C(C)C` and report it.
92 μg/gm (ppm)

Look up Carotenoid content of diet of CC(C)=CCC/C(C)=C/C=C/C(C)=C/C=C/C(C)=C/C=C/C=C(C)/C=C/C=C(C)/C=C/C1C(C(C)(C)O)CCC1(C)O (stereo not drawn) and report it.
0.46 μg/gm (ppm)

Look up Carotenoid content of diet of `CC(C)=CCC/C(C)=C/CC/C(C)=C/C=C/C(C)=C/C=C/C=C(\C)CC/C=C(\C)CC/C=C(\C)CCC=C(C)C` and report it.
8 μg/gm (ppm)
